B1: RSPH3 (parent)
chain: VDVQTELYLEEIADRIIEVDMECQ

# Variants of: B1
# EXPERIMENT NOTES: protein stability index of a GFP-peptide fusion (GPS, HEK-293T) (PSI 1-6); higher = more stable;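 also: lentivirally expressed fusions sorted by FACS into six bins by GFP to DsRed ratio, PSI derived from sequencing read proportions per bin multiplied by bin number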
# CONDITION DESCRIPTION: c terminus: a fixed tail appended
Measured protein stability index values are reported for all entries that follow.
Answer as a number with no unit attached.

Use the examples below as a reference point.
1) T5G | 2.46
2) Y8D | 4.25
3) E6K | 2.44
4) I17M | 1.87
5) E22C | 1.89
6) A13M | 1.58

# input I have this variant here, "Q4P" , and I need its recorded protein stability index.
# output 2.39
